Where these numbers come from: PubChem BioAssay (EPA / NIEHS)

read-out: Monokine induced gamma interferon (MIG), CXCL9 (gene 4283); assay: BSK_CASM3C_MIG: BioMAP Diversity Plus: CASM3C Assay for Monokine induced gamma interferon (MIG) Biomarker Activity (AID 2283048); conditions: primary human coronary artery smooth muscle cells; actives raise or lower the signal;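 note: MIG protein level measured by ELISA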
The source made the active and inactive calls. Rule for the calls: active = hit-call score of the fitted dose curve at least 0.9, where 1 is the maximum; inactive = score below 0.9.
Possible outcomes: y for active, n for inactive

| molecule | label value |
| --- | --- |
| CNC(=O)[C@H]1O[C@@H](n2cnc3c(NCc4cc(Cl)ccc4OCc4cc(C)no4)ncnc32)[C@H](O)[C@@H]1N | n |
| FC(F)(F)C(F)(F)C(F)(F)C(F)(F)C(F)(F)C(F)(F)CCI | n |
| Cc1nc(C)nc(N2C[C@@H](C)N(c3ccnc([C@@H](C)O)n3)[C@@H](C)C2)n1 | n |
| CN[C@H]1CC[C@@H](c2ccc(Cl)c(Cl)c2)c2ccc(S(N)(=O)=O)cc21 | y |
| CCCCc1ccc2c(n1)[C@@H](c1ccc(OC)cc1C[C@H](C)C(=O)O)[C@H](C(=O)O)[C@H]2c1ccc2c(c1)OCO2 | n |
| c1cc(-c2ccncc2)ccn1 | n |
| Nc1ccc(S(=O)(=O)c2ccc(N)cc2)cc1 | n |
| Cc1cc(NC(=O)C(=O)O)cc(C)c1Oc1ccc(O)c2c1CCC2 | n |
| O=C(O)CCCCC(=O)O | n |
| NS(=O)(=O)c1cc2c(cc1Cl)NCNS2(=O)=O | n |
| CCCCN(CCCC)CCCC | n |
| CCCCCCCC=O | n |
| O=C(OCCCCCOC(=O)c1ccccc1)c1ccccc1 | n |
| Cc1ccc2ncccc2c1 | n |
| C=CCOC(=O)c1ccccc1C(=O)OCC=C | n |
| C=CCc1ccc(O)c(OC)c1 | n |
| CCCCCCOCCO | n |
| NC(=O)Cn1c(=O)cc(CCN2CCN(c3nccc4sccc34)CC2)c2ccc(F)cc21 | n |
| CCCCCC(=O)O | n |
| Cc1ccccc1Cl | n |
| CC=Cc1ccc(O)c(OC)c1 | n |
| Cc1cc(=O)[nH]c(=S)[nH]1 | n |
| NCC1(Cc2noc(=O)[nH]2)CCCCC1 | n |
| CC1=C(/C=C/C(C)=C/C=C/C(C)=C/CO)C(C)(C)CCC1 | n |
| Cc1ccc(Cl)cc1 | n |
| Cc1cccc(C)c1O | n |
| Cc1nc(-c2ccc3c(c2)CCN(CCC2CCC(NC(=O)/C=C/c4ccc(F)cc4)CC2)CC3)no1 (configuration not stated) | y |
